Data provenance: patent US20220380473A1

measurement-target: T1, association of GAL3 and TIM3 (Homo sapiens, UniProt P17931)
T1 construct: full-length human Galectin-3 protein (Acro Biosystems, GA3-H5129); linker-spaced 6-histidine tag; purchased Acro Biosystems GA3-H5129 (Gal3); TM3-H5229 (TIM-3)
T1 sequence (P17931 2-250 limits assumed): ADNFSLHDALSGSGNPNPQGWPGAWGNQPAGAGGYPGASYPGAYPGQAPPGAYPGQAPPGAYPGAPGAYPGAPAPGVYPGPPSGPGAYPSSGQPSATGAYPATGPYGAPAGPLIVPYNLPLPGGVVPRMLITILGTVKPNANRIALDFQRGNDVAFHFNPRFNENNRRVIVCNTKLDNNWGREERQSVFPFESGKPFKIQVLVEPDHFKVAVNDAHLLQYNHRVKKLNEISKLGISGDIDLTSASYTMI
procedure-summary: GAL3-TIM3 blocking ELISA (Examples 24, 27)
Type: binding
condition-description: 3 ug/mL antibody
Procedure: Positively scoring wells were evaluated for the ability to block association of GAL3 and TIM3. To identify GAL3-targeted antibodies with the ability to block the interaction of GAL3 and TIM3, purified GAL3 and TIM3 proteins were incubated in the presence of GAL3-immunization hybridoma supernatants described above, or without antibody, and protein interaction was evaluated by ELISA. […]
assay-endpoint: GAL3-TIM3 Blocking @ 3 ug/mL (%)
Give the number; % is assumed, so skip it.

molecule	unit-spec	readout-number
19B5.2E6: murine anti-Gal3 antibody (antibody, V domains shown) VH: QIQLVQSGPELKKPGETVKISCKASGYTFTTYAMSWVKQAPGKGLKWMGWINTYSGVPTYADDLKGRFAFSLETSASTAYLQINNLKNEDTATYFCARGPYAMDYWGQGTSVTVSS VL: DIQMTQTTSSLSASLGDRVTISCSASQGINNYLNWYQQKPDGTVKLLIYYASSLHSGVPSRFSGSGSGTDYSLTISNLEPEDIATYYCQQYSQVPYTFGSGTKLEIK	%	61

-- ask Any idea what GAL3-TIM3 Blocking @ 3 ug/mL was measured for 20D11.2C6: murine anti-Gal3 antibody (antibody, V domains shown) VH: EVQLQQSGPELVKPGASVKISCKASGYTFTDFYINWVKQSHGKSLEWIGDINPKNGGINYNPKFKIKATLTVDKSSSTSYMDLRGLTSEDSAVYYCTSGYGFPYWGQGTLVTVSA VL: DIQMNQSPSSLSASLGDTITITCRASQNIYIWLSWYQQKPGNIPKLLIYKASNLHTGVPSRFSGSGSGTDFTLTISTLQPEDIATYFCLQGQSYPLTFGAGTKLEMK ?
-- reply 40

-- ask Any idea what GAL3-TIM3 Blocking @ 3 ug/mL was measured for 13A12.2E5: murine anti-Gal3 antibody (antibody, V domains shown) VH: QIQLVQSGPELKKPGETVKISCKTSGYKFKTYVMSWVKQAPGKALKWMGWINTYSGVPTYADDFKGRFAFSLETSASTAYLEIINLKNEDTATYFCARDGNYGDPMDYWGQGTSVTVSS VL: DVVMTQTPLTLSVAIGQPASISCKSSQSLLYTNGKTYLNWLLQRPGQSPKRLIYLLSKLDSGVPDRFSASGSGTDFTLKISRVEAEDLGVYYCLQSTHFPLTFGAGTKLEMK ?
-- reply 35
